molecular target: SARS-CoV spike (S) (SARS-CoV, UniProt P59594 14-1195); test: SPR, VHH over immobilised S
readoutName: Kd (nM)
Numbers only, in nM.

Consider the following illustrative entries.
NRCoV2-MRed25 VHH (VHH) VHH: EVQLVESGGGLVQAGGSLRLSCAASGHTFSRYGMGWFRQAPGKEREFVAAISWRGDSTYYRDSVNGRFTISRDNAKNTVYLGMNSLKPEDTAVYYCAAEMWGTATIVASRYTYWGQGTQVTVSS = 2.29
NRCoV2-S2G3 VHH (VHH) VHH: QVQLVQSGGGSVQAGGSLRLSCAASGSTFGIFLMGWRRQAPGKQRELVAHITSGGATNYADSVKGRFTISRDNAKNTVYLQMNSLEPEDTAVYYCYTTKRDDASVYWGQGTQVTVSS = 4.27
NRCoV2-MRed20 VHH (VHH) VHH: EVQLVESGGGSVQAGGSLRLSCAASGLSFSSYDMGWFRQAPGKEREFVAAIRESGSGTYYADSVKGRFTISRDNAKNTVYLQVSSLKPEDTAVYTCAAKPPFYGSGTYSTPRAYLYWGQGTQVTVSS = 10.7

Kindly consider the entry below.
Quick check: Kd of NRCoV2-MRed19 VHH (VHH) VHH: EVQLVESGGGLVQPGGSLRLSCAASTIIFKGQTMGWFRQAPGNERELVATMTTSGSANYADSVKGRFTISRDNEKTVTLQMNSLKPEDTALYYCYMHSVYYGIDYWGKGTQVTVSS ?
24.6
